STUDY_TARGET: human recombinant 5-HT2A receptor (Homo sapiens, UniProt P28223)
Construct: expressed in transfected cells; host or cells: Jump-In HEK cells (membrane preparation)
Sequence (P28223 whole entry): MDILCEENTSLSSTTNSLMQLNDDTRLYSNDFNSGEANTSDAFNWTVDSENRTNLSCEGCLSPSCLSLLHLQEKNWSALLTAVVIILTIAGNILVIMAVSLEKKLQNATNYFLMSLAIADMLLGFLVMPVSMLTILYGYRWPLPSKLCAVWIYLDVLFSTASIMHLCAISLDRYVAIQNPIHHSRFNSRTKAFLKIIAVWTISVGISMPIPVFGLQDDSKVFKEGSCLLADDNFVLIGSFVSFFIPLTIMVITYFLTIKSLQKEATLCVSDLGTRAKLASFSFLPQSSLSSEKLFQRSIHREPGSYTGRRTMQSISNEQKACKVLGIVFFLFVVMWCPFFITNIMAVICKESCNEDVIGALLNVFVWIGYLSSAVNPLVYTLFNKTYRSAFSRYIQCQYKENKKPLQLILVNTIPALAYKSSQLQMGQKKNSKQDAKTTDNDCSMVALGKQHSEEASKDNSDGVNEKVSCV
TEST_SUMMARY: Test Example 1-2: 5-HT2A receptor binding inhibition test ([3H]-Ketanserin; non-specific ligand Ketanserin)
PARTICULARS: [3H]-Ketanserin; non-specific binding with 500 µmol/L Ketanserin; room temperature (25°C), 1.5 hours; read-out: h 5-HT2A Ki

>  <STRUCTURE_STRING>
Cc1cnn(C)c1-c1cc(Nc2ccc(C(F)(F)F)cn2)ccc1OCCO

>  <Ki [nM]>
0.149

$$$$
>  <STRUCTURE_STRING>
COCc1nc(C)c(-c2cc(Nc3ncc(-c4ccc(C#N)c(F)c4)cc3Cl)ncc2OCCO)c(C)n1

>  <Ki [nM]>
0.972

$$$$
>  <STRUCTURE_STRING>
Cc1cnn(C2CC2)c1-c1cc(Nc2ncc(C(F)(F)F)cc2F)ccc1OCCO

>  <Ki [nM]>
0.236

$$$$
>  <STRUCTURE_STRING>
Cc1cc(Cl)cnc1Nc1ccc(OCCO)c(-c2c(Br)cnn2C)c1

>  <Ki [nM]>
0.303

$$$$
>  <STRUCTURE_STRING>
Cc1nc(C)c(-c2cc(Nc3ccc(OC(F)(F)F)cn3)ncc2OCCO)c(C)n1

>  <Ki [nM]>
0.851

$$$$
>  <STRUCTURE_STRING>
COCc1nc(C)c(-c2cc(Nc3ncc(OC(F)(F)F)cc3Cl)ncc2OCCO)c(C)n1

>  <Ki [nM]>
1.49

$$$$
>  <STRUCTURE_STRING>
Cc1cnn(C)c1-c1cc(Nc2ncc(C(F)(F)F)cc2F)ccc1OCCO

>  <Ki [nM]>
0.338

$$$$
>  <STRUCTURE_STRING>
Cn1ncc(Br)c1-c1nc(Nc2ccc(Cl)c(C(F)(F)F)c2)ncc1OCCO

>  <Ki [nM]>
0.204

$$$$
>  <STRUCTURE_STRING>
Cc1nc(OC2CC2)nc(C)c1-c1cc(Nc2ncc(C(F)(F)F)cc2Cl)ncc1OCCO

>  <Ki [nM]>
1.22

$$$$
>  <STRUCTURE_STRING>
Cc1nc(C2CC2)nc(C)c1-c1cc(Nc2ncc(C(F)(F)F)cc2Cl)ncc1OCCO

>  <Ki [nM]>
1.3

$$$$
>  <STRUCTURE_STRING>
Cc1nc(C)c(-c2cc(Nc3ncc(C(F)(F)F)cc3F)c(F)cc2OC[C@H](C)O)c(C)n1

>  <Ki [nM]>
2.83

$$$$
>  <STRUCTURE_STRING>
Cn1ncc(Br)c1-c1cc(Nc2ccc(C(F)(F)F)nn2)c(F)cc1OCCO

>  <Ki [nM]>
0.533

$$$$
>  <STRUCTURE_STRING>
Cn1ncc(F)c1-c1cc(Nc2ccc(C(F)(F)F)cn2)c(F)cc1OCCO

>  <Ki [nM]>
0.212

$$$$
>  <STRUCTURE_STRING>
Cn1ncc(Br)c1-c1nc(Nc2ccc(C(F)(F)F)nc2)ncc1OCCO

>  <Ki [nM]>
0.254

$$$$
>  <STRUCTURE_STRING>
Cn1ncc(Br)c1-c1nc(Nc2ccc(C#N)cc2F)ncc1OCCO

>  <Ki [nM]>
0.319

$$$$
>  <STRUCTURE_STRING>
COCc1nc(C)c(-c2cc(Nc3ncc(-c4ncc(OC)cn4)cc3Cl)ncc2OCCO)c(C)n1

>  <Ki [nM]>
2.74

$$$$
>  <STRUCTURE_STRING>
Cn1ncc(C#N)c1-c1cc(Nc2ncc(C(F)(F)F)cc2F)ncc1OCCO

>  <Ki [nM]>
0.412

$$$$
